system: MCF7; assay: MTT growth inhibition / cytotoxicity assay, MCF7; assay type: cell-based, human; conditions: Homo sapiens, MCF7, 48 h, read-out: IC50 in μM MCF7, MTT, 48 h, 0–100 μM
What IC50 was measured for each of the following?

Observed IC50, MCF7, C=C1[C@@H]2[C@H]3OC(=O)/C(=C/c4ccc(C)cc4)[C@@H]3CCC(=C)[C@@H]2C[C@@H]1OC(C)=O [Compound 23] : > 100 µM

Record IC50 per entry; entries follow.
1. C=C1[C@@H]2[C@H]3OC(=O)/C(=C/c4ccc(C)cc4[N+](=O)[O-])[C@@H]3CCC(=C)[C@@H]2C[C@@H]1OC(C)=O [Compound 34]
2. C=C1[C@@H]2[C@H]3OC(=O)/C(=C/c4ccc(Cl)cc4)[C@@H]3CCC(=C)[C@@H]2C[C@@H]1OC(C)=O [Compound 25]
3. C=C1[C@@H]2[C@H]3OC(=O)/C(=C/c4ccc(C(=O)OC)cc4)[C@@H]3CCC(=C)[C@@H]2C[C@@H]1OC(C)=O [Compound 30]

1. > 100 µM
2. > 100 µM
3. > 100 µM

Provide IC50 for all items below, preserving their order.
1. C=C1[C@@H]2[C@H]3OC(=O)/C(=C/c4ccccc4[N+](=O)[O-])[C@@H]3CCC(=C)[C@@H]2C[C@@H]1OC(C)=O [Compound 32]
2. C=C1[C@@H]2[C@H]3OC(=O)[C@@H](CN[C@H](C)c4ccccc4)[C@@H]3CCC(=C)[C@@H]2C[C@@H]1O [Compound 6]
3. C=C1[C@@H]2[C@H]3OC(=O)[C@@H](CN4CCOCC4)[C@@H]3CCC(=C)[C@@H]2C[C@@H]1OC(C)=O [Compound 17]
4. C=C1[C@@H]2[C@H]3OC(=O)[C@@H](CN4CCCC4)[C@@H]3CCC(=C)[C@@H]2C[C@@H]1O [Compound 19]
5. C=C1[C@@H]2[C@H]3OC(=O)[C@@H](CN[C@H](C)C4CCCCC4)[C@@H]3CCC(=C)[C@@H]2C[C@@H]1O [Compound 11]
6. C=C1[C@@H]2[C@H]3OC(=O)[C@@H](CN[C@@H](C)C4CCCCC4)[C@@H]3CCC(=C)[C@@H]2C[C@@H]1O [Compound 12]

1. 36.5 µM
2. > 100 µM
3. > 100 µM
4. > 100 µM
5. > 100 µM
6. > 100 µM

// batch mode: one IC50 value per listed entry
1. C=C1[C@@H]2[C@H]3OC(=O)/C(=C/c4c(OC)cccc4[N+](=O)[O-])[C@@H]3CCC(=C)[C@@H]2C[C@@H]1OC(C)=O [Compound 26]
2. C=C1[C@@H]2[C@H]3OC(=O)[C@@H](CN4CCOCC4)[C@@H]3CCC(=C)[C@@H]2C[C@@H]1O [Compound 18]
3. C=C1[C@@H]2[C@H]3OC(=O)[C@@H](CN[C@H](C)c4cccc5ccccc45)[C@@H]3CCC(=C)[C@@H]2C[C@@H]1OC(C)=O [Compound 9]

["> 100 µM", "> 100 µM", "< 50 µM"]

====

tested on: MCF7; assay: MTT growth inhibition / cytotoxicity assay, MCF7; format: cell-based, human; settings: read-out: IC50 in μM MCF7; MTT, 48 h, 0–100 μM
Field: IC50. Provide a value for each of the compounds that follow.
Give bare numbers, in µM.

Value sought: IC50, system MCF7, item `C=C1[C@@H]2[C@H]3OC(=O)[C@@H](CN[C@H](C)c4cccc5ccccc45)[C@@H]3CCC(=C)[C@@H]2C[C@@H]1OC(C)=O` . Result: 30

Further cases:
Measured IC50 for this entry `C=C1[C@@H]2[C@H]3OC(=O)[C@@H](CN4CCC(O)CC4)[C@@H]3CCC(=C)[C@@H]2C[C@@H]1O` on MCF7: 40

====

Please go through the items and note down their IC50.
tested on: MCF7; experiment: MTT growth inhibition / cytotoxicity assay, MCF7; assay type: cell-based, human; conditions: Homo sapiens, MCF7, 48 h, read-out: IC50 in μM MCF7, MTT, 48 h, 0–100 μM

# annotated cases, reported IC50 shown
// recorded IC50 for C=C1[C@@H]2[C@H]3OC(=O)[C@@H](CN[C@@H](C)c4ccccc4)[C@@H]3CCC(=C)[C@@H]2C[C@@H]1O [Compound 4] : > 100 µM

C=C1[C@@H]2[C@H]3OC(=O)[C@@H](COC)[C@@H]3CCC(=C)[C@@H]2C[C@@H]1O [Compound 22] yielded IC50 of > 100 µM

Documented IC50 of C=C1[C@@H]2[C@H]3OC(=O)[C@@H](CN4CCCCC4)[C@@H]3CCC(=C)[C@@H]2C[C@@H]1O [Compound 20] : > 100 µM

Lab note: each molecule below needs its IC50 filled in.
1. C=C1[C@@H]2[C@H]3OC(=O)[C@@H](CN[C@@H](C)c4cccc5ccccc45)[C@@H]3CCC(=C)[C@@H]2C[C@@H]1O [Compound 8]
2. C=C1[C@@H]2[C@H]3OC(=O)/C(=C/c4ccc(Cl)cc4[N+](=O)[O-])[C@@H]3CCC(=C)[C@@H]2C[C@@H]1OC(C)=O [Compound 33]

1: 75.8 µM; 2: > 100 µM

Recorded result, C=C1[C@@H]2[C@H]3OC(=O)/C(=C/c4ccccc4C)[C@@H]3CCC(=C)[C@@H]2C[C@@H]1OC(C)=O [Compound 29] , IC50: 74 µM

====

system: MDA-MB-231; test: MTT growth inhibition / cytotoxicity assay, MDA-MB-231; format: cell-based, human; details: read-out: IC50 in μM MDA-MB-231, 48 h, 0–100 μM
observable: IC50 (µM)
Answers are plain numbers, in µM.

Entry C=C1[C@@H]2[C@H]3OC(=O)[C@@H](CN4CCC(O)CC4)[C@@H]3CCC(=C)[C@@H]2C[C@@H]1O [Compound 14] , IC50 reported as 25

====

Provide the reported IC50 of each item.
system: MCF7; experiment: MTT growth inhibition / cytotoxicity assay, MCF7; format: cell-based, human; settings: Homo sapiens, MCF7, 48 h, read-out: IC50 in μM MCF7, MTT, 48 h, 0–100 μM

Considering `C=C1[C@@H]2[C@H]3OC(=O)/C(=C/c4ccc(C)c([N+](=O)[O-])c4)[C@@H]3CCC(=C)[C@@H]2C[C@@H]1OC(C)=O` , its IC50 with MCF7 was recorded as > 100 µM

Can you give me IC50 for all of these, one by one?
1. C=C1[C@@H]2[C@H]3OC(=O)/C(=C/c4cccc(C(F)(F)F)c4)[C@@H]3CCC(=C)[C@@H]2C[C@@H]1OC(C)=O
2. C=C1[C@@H]2[C@H]3OC(=O)[C@@H](CN4CCC(O)CC4)[C@@H]3CCC(=C)[C@@H]2C[C@@H]1O
3. C=C1[C@@H]2[C@H]3OC(=O)[C@@H](CN[C@@H](C)c4cccc5ccccc45)[C@@H]3CCC(=C)[C@@H]2C[C@@H]1OC(C)=O
4. C=C1[C@@H]2[C@H]3OC(=O)C(=C)[C@@H]3CCC(=C)[C@@H]2C[C@@H]1O
5. C=C1[C@@H]2[C@H]3OC(=O)/C(=C/c4ccc(NC(C)=O)c(C(F)(F)F)c4)[C@@H]3CCC(=C)[C@@H]2C[C@@H]1OC(C)=O

1. > 100 µM
2. < 50 µM
3. > 100 µM
4. > 100 µM
5. > 100 µM
